System under test: SULT2A1 (Homo sapiens, UniProt Q06520)
Sequence (Q06520 1-285): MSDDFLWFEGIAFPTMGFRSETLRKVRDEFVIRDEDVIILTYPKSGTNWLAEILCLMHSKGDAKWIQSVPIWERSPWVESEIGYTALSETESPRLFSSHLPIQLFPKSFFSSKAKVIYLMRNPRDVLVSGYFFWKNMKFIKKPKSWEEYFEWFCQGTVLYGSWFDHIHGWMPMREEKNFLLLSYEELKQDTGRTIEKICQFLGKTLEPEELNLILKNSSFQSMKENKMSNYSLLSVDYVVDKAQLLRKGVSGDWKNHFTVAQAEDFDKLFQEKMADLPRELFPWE
Experiment: Presteady state
Condition info: read-out: Kd (koff/kon); enzyme species RAL·E·; raloxifene 50 μM
Assay endpoint: Kd (µM)
API: value field is a number in µM; no unit string.

Tell me its Kd on SULT2A1 (Homo sapiens, UniProt Q06520): Nc1ncnc2c1ncn2[C@@H]1O[C@H](COP(=O)(O)OS(=O)(=O)O)[C@@H](OP(=O)(O)O)[C@H]1O [PAPS, 3′-phosphoadenosine 5′-phosphosulfate]
6

====

System under test: SULT2A1 (Homo sapiens, UniProt Q06520)
Experiment: Presteady state
Condition info: read-out: Kd (koff/kon); enzyme species DHEA·E·
Assay endpoint: Kd (nM)
Respond with the bare value in nM.

Fill in reported Kd for this entry: Nc1ncnc2c1ncn2[C@@H]1O[C@H](COP(=O)(O)OS(=O)(=O)O)[C@@H](OP(=O)(O)O)[C@H]1O [PAPS, 3′-phosphoadenosine 5′-phosphosulfate]
240

====

System under test: SULT2A1 (Homo sapiens, UniProt Q06520)
Experiment: Equilibrium ligand binding monitored by intrinsic enzyme fluorescence
Condition info: enzyme species E· (unliganded)
Assay endpoint: Kd (nM)
Numbers only here, please. The scale is nM.

Hello, please tell me recorded Kd for this one: Nc1ncnc2c1ncn2[C@@H]1O[C@H](COP(=O)(O)OS(=O)(=O)O)[C@@H](OP(=O)(O)O)[C@H]1O [PAPS, 3′-phosphoadenosine 5′-phosphosulfate]
280

====

System under test: SULT2A1 (Homo sapiens)
Experiment: Equilibrium ligand binding monitored by intrinsic enzyme fluorescence
Condition info: Kd, enzyme species Ral·E·
Assay endpoint: Kd (µM)
Return type: number; implicit unit µM.

Please report Kd for the following compound: Nc1ncnc2c1ncn2[C@@H]1O[C@H](COP(=O)(O)O)[C@@H](OP(=O)(O)O)[C@H]1O
6

====

System under test: SULT2A1 (Homo sapiens, UniProt Q06520)
Experiment: Equilibrium ligand binding monitored by intrinsic enzyme fluorescence
Condition info: Kd, enzyme species E· (unliganded)
Assay endpoint: Kd (nM)
# number only, unit nM dropped from output

Report Kd, nothing else, for this molecule: C[C@]12CC[C@H](O)CC1=CC[C@@H]1[C@@H]2CC[C@]2(C)C(=O)CC[C@@H]12 [DHEA, 5-dehydroepiandrosterone]
1000

The reported measurements were obtained from paper PMC3448010.
